Each entry below carries its reported APC binding (nm).
molecular target: T1, human activated protein C (APC) (human, UniProt P04070 43-461); assay: BLI (Octet): nanobody captured on anti-V5 sensor, dipped in 500 nM APC; buffer sensor reads 0.06
T1 construct: Bought (Haematologic Technologies; plasma-derived from Enzyme Research Laboratories); Two-chain disulfide-linked protease
T1 sequence (P04070 other isoform, or with tags, fused parts or gaps): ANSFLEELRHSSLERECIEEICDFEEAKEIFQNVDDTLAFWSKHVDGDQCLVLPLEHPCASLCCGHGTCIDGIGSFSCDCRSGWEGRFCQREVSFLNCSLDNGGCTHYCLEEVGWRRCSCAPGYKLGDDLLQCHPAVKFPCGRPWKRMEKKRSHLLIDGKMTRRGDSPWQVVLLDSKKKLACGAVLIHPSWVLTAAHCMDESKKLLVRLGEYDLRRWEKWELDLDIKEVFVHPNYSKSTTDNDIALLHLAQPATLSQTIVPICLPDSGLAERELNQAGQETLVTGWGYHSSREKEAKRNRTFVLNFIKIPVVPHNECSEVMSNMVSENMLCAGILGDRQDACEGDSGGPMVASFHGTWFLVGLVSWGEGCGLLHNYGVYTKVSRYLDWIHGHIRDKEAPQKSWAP
ENDPOINT: APC binding (nm)

>>> endpoint_value("LP3 (SR16983-R2-P4-E09) (VHH, not shown: small tags and cut ends, Llama VHH purified from E. coli periplasm) VHH: QVQLVESGGGLVQPGGSLTLSCAASGTIESINDMGWYRQAPGKQRELVAAITSGGSTNYADSVKGRFTISRDNAKNTVYLQMNSLKPEDTAVYYCNAEVKRHYYYDSAGYRYWGQGTQVTVSS")
0.29
>>> endpoint_value("LP13 (SR16983-R3-P3-G08) (VHH, not shown: small tags and cut ends, Llama VHH purified from E. coli periplasm) VHH: QLQLVESGGGLVQAGGSLRLSCVASGTTFTIEDIGWHRQAPGKQLELVAVSRGGGNADYSDSVKGRFTISRDNAKTTVYLQMSSLKPEDTAVYYCIAKTKATTKWGRGIQVTVSS")
0.32
>>> endpoint_value("LP19 (SR16983-R4-P1-B06) (VHH, not shown: small tags and cut ends, Llama VHH purified from E. coli periplasm) VHH: QLQLVESGGGEVQAGESLRLSCAASGSTFSINVFAWYRDYPGKQRELVAVIGRSGTPRYADSVKGRFTISRDNAKNTVYLQMNSLEPEDTAVYYCHLGDTWGQGTQVTVSS")
0.31
>>> endpoint_value("LP4 (SR16983-R3-P2-A06) (VHH, not shown: small tags and cut ends, Llama VHH purified from E. coli periplasm) VHH: QLQLVESGGGLVQAGGSLRLSCAASGSTFNFRIMGWYRQVPGKQRELVAVINSGGSADYTEDVKGRFTISRDDAKSTMYLQMNSLKPEDTAVYYCHAKKVEPTLFTTTYWGQGTQVTVSS")
0.33

Reference for the values: patent US20250163183A1
